Target: ternary complex CRBN/PROTAC/METTL3–14 (Homo sapiens, UniProt Q86U44+Q96SW2)
Construct: methyltransferase domains (MTD) of METTL3 (residues 354–580); His6 (N, cleaved yes); made in house; host or cells: METTL3-MTD/METTL14-MTD: baculovirus/Sf9; CRBN-TBD: E. coli Rosetta (DE3), co-expressed with BirA
Sequence (Q86U44 354-580): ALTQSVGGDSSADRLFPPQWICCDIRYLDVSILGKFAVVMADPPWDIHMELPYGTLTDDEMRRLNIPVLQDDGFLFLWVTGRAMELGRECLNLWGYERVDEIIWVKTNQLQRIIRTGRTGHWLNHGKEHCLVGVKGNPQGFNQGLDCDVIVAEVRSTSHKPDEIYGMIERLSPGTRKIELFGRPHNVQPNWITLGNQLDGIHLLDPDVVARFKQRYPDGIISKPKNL
Sequence (Q9HCE5 107-395 partner limits assumed): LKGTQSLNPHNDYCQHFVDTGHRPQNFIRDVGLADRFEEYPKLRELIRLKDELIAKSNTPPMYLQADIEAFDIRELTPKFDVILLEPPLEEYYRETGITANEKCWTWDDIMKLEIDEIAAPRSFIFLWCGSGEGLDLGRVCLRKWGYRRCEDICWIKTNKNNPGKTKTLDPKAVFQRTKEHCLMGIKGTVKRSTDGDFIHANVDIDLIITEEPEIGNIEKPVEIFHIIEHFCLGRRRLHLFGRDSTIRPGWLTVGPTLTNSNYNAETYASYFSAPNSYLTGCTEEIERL
Sequence (Q96SW2 318-442): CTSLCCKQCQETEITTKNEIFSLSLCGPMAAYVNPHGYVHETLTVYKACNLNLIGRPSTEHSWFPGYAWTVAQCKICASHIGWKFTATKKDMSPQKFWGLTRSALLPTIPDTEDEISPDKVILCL
Assay: FRET-based ternary complex formation assay (TCFA)
Type: binding
Conditions: TCFA, peak of the Hook curve

- COMPOUND: "CC1(C)CCN(Cc2cc(F)c(N3CC(=O)NC4(CCN(c5cc(NCc6cccc(CNC(=O)CCCNc7cccc8c7C(=O)N(C7CCC(=O)NC7=O)C8=O)c6)ncn5)CC4)C3)cc2F)CC1 (stereo not drawn) [Compound 14]"
  ECmax: "submicromolar"
- COMPOUND: "CC1(C)CCN(Cc2cc(F)c(N3CC(=O)NC4(CCN(c5cc(NCC6CCN(C(=O)CCCCCNc7cccc8c7C(=O)N(C7CCC(=O)NC7=O)C8=O)CC6)ncn5)CC4)C3)cc2F)CC1 (stereo not drawn) [Compound 24]"
  ECmax: "submicromolar"
- COMPOUND: "CC1(C)CCN(Cc2cc(F)c(N3CC(=O)NC4(CCN(c5cc(NCCN6CCN(C(=O)CCCCCNc7cccc8c7C(=O)N(C7CCC(=O)NC7=O)C8=O)CC6)ncn5)CC4)C3)cc2F)CC1 (stereo not drawn) [Compound 30]"
  ECmax: "submicromolar"

---

Target: METTL3-14 (Homo sapiens)
Sequence (Q86U44 whole entry): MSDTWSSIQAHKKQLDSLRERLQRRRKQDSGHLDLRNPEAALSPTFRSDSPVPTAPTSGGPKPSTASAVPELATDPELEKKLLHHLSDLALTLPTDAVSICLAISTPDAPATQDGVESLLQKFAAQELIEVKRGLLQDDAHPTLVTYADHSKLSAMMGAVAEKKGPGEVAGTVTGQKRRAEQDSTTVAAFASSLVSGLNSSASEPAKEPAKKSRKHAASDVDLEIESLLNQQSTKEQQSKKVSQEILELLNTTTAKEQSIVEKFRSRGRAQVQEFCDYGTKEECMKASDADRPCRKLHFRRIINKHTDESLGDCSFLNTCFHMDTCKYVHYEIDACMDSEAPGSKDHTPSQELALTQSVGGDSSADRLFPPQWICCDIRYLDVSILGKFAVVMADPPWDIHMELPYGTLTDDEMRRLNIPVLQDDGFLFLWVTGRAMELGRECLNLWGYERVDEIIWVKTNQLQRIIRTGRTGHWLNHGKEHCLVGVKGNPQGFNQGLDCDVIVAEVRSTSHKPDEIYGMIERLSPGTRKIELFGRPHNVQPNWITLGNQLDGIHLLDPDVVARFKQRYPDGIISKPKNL
Sequence (Q9HCE5 whole entry, further chain): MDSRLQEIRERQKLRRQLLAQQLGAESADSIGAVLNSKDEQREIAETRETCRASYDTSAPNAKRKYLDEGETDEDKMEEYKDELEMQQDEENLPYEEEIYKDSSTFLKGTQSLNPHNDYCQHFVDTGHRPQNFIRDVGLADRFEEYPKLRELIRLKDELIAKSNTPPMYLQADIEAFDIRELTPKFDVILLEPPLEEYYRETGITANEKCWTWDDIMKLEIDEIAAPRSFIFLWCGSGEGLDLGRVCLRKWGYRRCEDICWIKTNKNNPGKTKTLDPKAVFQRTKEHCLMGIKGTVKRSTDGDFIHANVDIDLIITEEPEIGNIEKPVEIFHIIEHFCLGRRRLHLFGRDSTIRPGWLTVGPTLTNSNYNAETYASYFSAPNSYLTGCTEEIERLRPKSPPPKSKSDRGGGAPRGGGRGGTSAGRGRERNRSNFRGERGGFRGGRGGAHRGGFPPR
Experiment: biochemical
Design: with the full-length complex, the recombinant complex construct pFastBacDual-StrepII-GFP-TEV-METTL3-His-TEV-METTL14 was expressed; StrepII (N); GFP (N); TEV site (N); made in house; host or cells: baculovirus/Sf9 insect cells
Conditions: inhibition of catalytic activity of METTL3-14, binary FRET assay
ENDPOINT: log10 IC50 (log10 of the value in nM)
Answers are given as log10 of IC50 in nM.

Look up log10 IC50 of CC1(C)CCN(Cc2cc(F)c(N3CC(=O)NC4(CCN(c5cc(NCCCNC(=O)CCCCCCCCCCn6cc(CNc7cccc8c7C(=O)N(C7CCC(=O)NC7=O)C8=O)nn6)ncn5)CC4)C3)cc2F)CC1 (stereo not shown) and report it.
2.34

Look up log10 IC50 of CC1(C)CCN(Cc2cc(F)c(N3CC(=O)NC4(CCN(c5cc(NCC6CCN(C(=O)CCCCCNc7cccc8c7C(=O)N(C7CCC(=O)NC7=O)C8=O)CC6)ncn5)CC4)C3)cc2F)CC1 (stereo not shown) and report it.
1.76

Look up log10 IC50 of CC1(C)CCN(Cc2cc(F)c(N3CC(=O)NC4(CCN(c5cc(NCCN6CCN(C(=O)CCCCCNc7cccc8c7C(=O)N(C7CCC(=O)NC7=O)C8=O)CC6)ncn5)CC4)C3)cc2F)CC1 (stereo not shown) and report it.
1.43

Look up log10 IC50 of CC1(C)CCN(Cc2cc(F)c(N3CC(=O)NC4(CCN(c5cc(NCC6CCN(C(=O)CCCCCCCNc7cccc8c7C(=O)N(C7CCC(=O)NC7=O)C8=O)CC6)ncn5)CC4)C3)cc2F)CC1 (stereo not shown) and report it.
2.04

Look up log10 IC50 of CC1(C)CCN(Cc2cc(F)c(N3CC(=O)NC4(CCN(c5cc(NCCCNC(=O)CCCCCCCCCCNc6cccc7c6CN(C6CCC(=O)NC6=O)C7=O)ncn5)CC4)C3)cc2F)CC1 (stereo not shown) and report it.
2.48

Look up log10 IC50 of CC1(C)CCN(Cc2ccc(N3CC(=O)NC4(CCN(c5cc(NCCCNC(=O)CCOCCOCCOCCOCCNc6cccc7c6C(=O)N(C6CCC(=O)NC6=O)C7=O)ncn5)CC4)C3)cc2)CC1 (stereo not shown) and report it.
2.77

Look up log10 IC50 of CC1(C)CCN(Cc2cc(F)c(N3CC(=O)NC4(CCN(c5cc(NCc6cn(CCCCCCCCC(=O)Nc7cccc8c7CN(C7CCC(=O)NC7=O)C8=O)nn6)ncn5)CC4)C3)cc2F)CC1 (stereo not shown) and report it.
1.53

Look up log10 IC50 of CC1(C)CCN(Cc2cc(F)c(N3CC(=O)NC4(CCN(c5cc(NCc6cccc(CNC(=O)CCn7cc(CNc8cccc9c8C(=O)N(C8CCC(=O)NC8=O)C9=O)nn7)c6)ncn5)CC4)C3)cc2F)CC1 (stereo not shown) and report it.
1.15

Look up log10 IC50 of CC1(C)CCN(Cc2cc(F)c(N3CC(=O)NC4(CCN(c5cc(NCc6cccc(CNC(=O)CCCNc7cccc8c7C(=O)N(C7CCC(=O)NC7=O)C8=O)c6)ncn5)CC4)C3)cc2F)CC1 (stereo not shown) and report it.
1.04

Look up log10 IC50 of CC1(C)CCN(Cc2cc(F)c(N3CC(=O)NC4(CCN(c5cc(NCc6cccc(CNC(=O)CCCCCCCCCCn7cc(CNc8cccc9c8C(=O)N(C8CCC(=O)NC8=O)C9=O)nn7)c6)ncn5)CC4)C3)cc2F)CC1 (stereo not shown) and report it.
2.30

---

Target: METTL3 (Homo sapiens, UniProt Q86U44)
Construct: METTL3–14 degradation up to 70% of the endogenous level; endogenous in cells; host or cells: MOLM-13, PC3, DU145
Sequence (Q86U44 2-580 limits assumed): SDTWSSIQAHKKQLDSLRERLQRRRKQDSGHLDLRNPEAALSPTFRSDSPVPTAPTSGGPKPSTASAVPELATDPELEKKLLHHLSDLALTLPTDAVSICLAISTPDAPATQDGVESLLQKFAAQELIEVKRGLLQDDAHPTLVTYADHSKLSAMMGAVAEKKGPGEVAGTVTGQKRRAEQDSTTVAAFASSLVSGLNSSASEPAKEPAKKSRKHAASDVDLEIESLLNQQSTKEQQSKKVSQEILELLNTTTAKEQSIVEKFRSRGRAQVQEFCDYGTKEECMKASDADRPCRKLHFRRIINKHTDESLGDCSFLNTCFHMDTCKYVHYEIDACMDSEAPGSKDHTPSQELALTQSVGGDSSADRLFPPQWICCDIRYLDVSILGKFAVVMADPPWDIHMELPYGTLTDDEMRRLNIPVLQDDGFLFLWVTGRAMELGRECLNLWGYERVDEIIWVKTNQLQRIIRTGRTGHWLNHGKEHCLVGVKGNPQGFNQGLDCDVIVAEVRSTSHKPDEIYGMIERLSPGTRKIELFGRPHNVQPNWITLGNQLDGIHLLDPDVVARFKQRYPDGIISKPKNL
Sequence (Q9HCE5 whole entry partner): as the sequence (Q9HCE5 whole entry, further chain) above
Experiment: Cellular degradation assay (Western blot), METTL3 in MOLM-13
Format: cell-based
Conditions: MOLM-13, 24 h, 2 μM compound
ENDPOINT: MOLM-13 West. blot at 24h 2 μM comp conc. Degradation (%) of METTL3
Unit % implied. Number only.

- COMPOUND: "CC1(C)CCN(Cc2cc(F)c(N3CC(=O)NC4(CCN(c5cc(NCC6CCN(C(=O)CCCCCCCNc7cccc8c7C(=O)N(C7CCC(=O)NC7=O)C8=O)CC6)ncn5)CC4)C3)cc2F)CC1 (centres unmarked) [Compound 25]"
  TGT: "METTL3 (Homo sapiens, UniProt Q86U44)"
  MEASURED RESULT: 20

Please look at the following compound next.
Please respond with reported MOLM-13 West. blot at 24h 2 μM comp conc. Degradation (%) of METTL3 (system METTL3 (Homo sapiens, UniProt Q86U44)) for CC1(C)CCN(Cc2cc(F)c(N3CC(=O)NC4(CCN(c5cc(NCc6cccc(CNC(=O)CCn7cc(CNc8cccc9c8C(=O)N(C8CCC(=O)NC8=O)C9=O)nn7)c6)ncn5)CC4)C3)cc2F)CC1 (centres unmarked) [Compound 18] .
19

---

Listed below: ECmax values for each entry.
Biological target: ternary complex CRBN/PROTAC/METTL3–14 (Homo sapiens, UniProt Q86U44+Q96SW2)
Construct: methyltransferase domains (MTD) of METTL3 (residues 354–580); His6 (N, cleaved yes); made in house; host or cells: METTL3-MTD/METTL14-MTD: baculovirus/Sf9; CRBN-TBD: E. coli Rosetta (DE3), co-expressed with BirA
Test: FRET-based ternary complex formation assay (TCFA)
Format: binding
Conditions: TCFA, peak of the Hook curve
Unit µM implied. Number only.

- MOLECULE: "CC1(C)CCN(Cc2ccc(N3CC(=O)NC4(CCN(c5cc(NCCCNC(=O)CCOCCOCCOCCOCCNc6cccc7c6C(=O)N(C6CCC(=O)NC6=O)C7=O)ncn5)CC4)C3)cc2)CC1 (centres unmarked)"
  MEASUREMENT UNIT: "µM"
  ECmax: 1.9
- MOLECULE: "CC1(C)CCN(Cc2ccc(N3CC(=O)NC4(CCN(c5cc(NCCCNC(=O)CCOCCOCCNc6cccc7c6C(=O)N(C6CCC(=O)NC6=O)C7=O)ncn5)CC4)C3)cc2)CC1 (centres unmarked)"
  MEASUREMENT UNIT: "µM"
  ECmax: 6.8
- MOLECULE: "CC1(C)CCN(Cc2cc(F)c(N3CC(=O)NC4(CCN(c5cc(NCC6CCN(C(=O)CNc7cccc8c7C(=O)N(C7CCC(=O)NC7=O)C8=O)CC6)ncn5)CC4)C3)cc2F)CC1 (centres unmarked)"
  MEASUREMENT UNIT: "µM"
  ECmax: 0.06
- MOLECULE: "CC1(C)CCN(Cc2ccc(N3CC(=O)NC4(CCN(c5cc(NCCCNC(=O)CCOCCOCCOCCOCCOCCNc6cccc7c6C(=O)N(C6CCC(=O)NC6=O)C7=O)ncn5)CC4)C3)cc2)CC1 (centres unmarked)"
  MEASUREMENT UNIT: "µM"
  ECmax: 2.0

Please look at the following molecule next.
Look up ECmax of CC1(C)CCN(Cc2ccc(N3CC(=O)NC4(CCN(c5cc(NCCCNC(=O)CCOCCOCCOCCNc6cccc7c6C(=O)N(C6CCC(=O)NC6=O)C7=O)ncn5)CC4)C3)cc2)CC1 (centres unmarked) and report it.
2.8

---

Molecular target: METTL3 (Homo sapiens)
Construct: METTL3–14 degradation up to 70% of the endogenous level; endogenous in cells; host or cells: MOLM-13, PC3, DU145
Assay: Cellular degradation assay (Western blot), METTL3 in MOLM-13
Format: cell-based
Conditions: MOLM-13, 24 h, 2 μM compound
Listed below: MOLM-13 West. blot at 24h 2 μM comp conc. Degradation (%) of METTL3 values for each entry.

Examples with their reported MOLM-13 West. blot at 24h 2 μM comp conc. Degradation (%) of METTL3 follow.
- COMPOUND: "CC1(C)CCN(Cc2cc(F)c(N3CC(=O)NC4(CCN(c5cc(NCc6cccc(CNC(=O)CCCCCCCCNc7cccc8c7CN(C7CCC(=O)NC7=O)C8=O)c6)ncn5)CC4)C3)cc2F)CC1 (centres unmarked)"
  TGT: "METTL3 (Homo sapiens)"
  MEASURED RESULT: "24 ± 14%"
- COMPOUND: "CC1(C)CCN(Cc2cc(F)c(N3CC(=O)NC4(CCN(c5cc(NCCCNC(=O)CCCCCCCCNc6cccc7c6CN(C6CCC(=O)NC6=O)C7=O)ncn5)CC4)C3)cc2F)CC1 (centres unmarked)"
  TGT: "METTL3 (Homo sapiens)"
  MEASURED RESULT: "18 ± 6%"

Look up MOLM-13 West. blot at 24h 2 μM comp conc. Degradation (%) of METTL3 of CC1(C)CCN(Cc2cc(F)c(N3CC(=O)NC4(CCN(c5cc(NCCN6CCN(C(=O)CCCNc7cccc8c7C(=O)N(C7CCC(=O)NC7=O)C8=O)CC6)ncn5)CC4)C3)cc2F)CC1 (centres unmarked) and report it.
42 ± 14%

Look up MOLM-13 West. blot at 24h 2 μM comp conc. Degradation (%) of METTL3 of CC1(C)CCN(Cc2cc(F)c(N3CC(=O)NC4(CCN(c5cc(NCCN6CCN(C(=O)CCCCCCCNc7cccc8c7C(=O)N(C7CCC(=O)NC7=O)C8=O)CC6)ncn5)CC4)C3)cc2F)CC1 (centres unmarked) and report it.
49 ± 33%
